As shown below, each of these molecules has a reported Luciferase expression as a percentage of that achieved using Lipofectamine 2000 value.
- System: cos-7 cells
- ASSAY OVERVIEW: DNA transfection: luciferase expression relative to Lipofectamine 2000
- Type: cell-based
- PARTICULARS: lipid/DNA 25 w/w; 300 ng Luciferase DNA per well; luciferase assay after 48 hours
API: value field is a number in %; no unit string.

QUERY: I am curious: what Luciferase expression as a percentage of that achieved using Lipofectamine 2000 value has been reported for CCCCCCCCCCCCOC(=O)CCN(C)CCCN(C)CCC(=O)OCCCCCCCCCCCC [LD63] ?
RESULT: 0.6

----------
- ASSAY OVERVIEW: DNA delivery: raw luciferase expression (relative light units) of best-transfecting lipids
- Type: cell-based
- PARTICULARS: lipid/DNA 15 w/w; 300 ng of DNA per well
READOUT NAME: Raw values for luciferase expression

Known Raw values for luciferase expression results, listed for orientation:
QUERY: So what does the record say about Raw values for luciferase expression for `CCCCCCCCCCCCCCNC(=O)CCN(CCO)CCN(CCO)CCC(=O)NCCCCCCCCCCCCCC` ?
RESULT: 772518 relative lights units

QUERY: Same again, this time with `CCCCCCCCCCCCCCCNC(=O)CCN(C)CCN(CCC(=O)NCCCCCCCCCCCCCCC)CCC(=O)NCCCCCCCCCCCCCCC`
RESULT: 1208120 relative lights units

QUERY: And what about the compound `CCCCCCCCCCCCNC(=O)CCN(CCC(=O)NCCCCCCCCCCCC)CCN(CCC(=O)NCCCCCCCCCCCC)CCN(CCC(=O)NCCCCCCCCCCCC)CCN(CCC(=O)NCCCCCCCCCCCC)CCC(=O)NCCCCCCCCCCCC` ?
RESULT: 643862 relative lights units

QUERY: Next compound up: `CCCCCCCCCCCCCCNC(=O)CCN(C)CCN(CCC(=O)NCCCCCCCCCCCCCC)CCC(=O)NCCCCCCCCCCCCCC`
RESULT: 918612 relative lights units

QUERY: Try `CCCCCCCCCCCCNC(=O)CCN(CCOCCO)CCC(=O)NCCCCCCCCCCCC` next.
RESULT: 936815 relative lights units

***
QUERY: Param item = `CCCCCCCCCCCCCCCCNC(=O)CCN(CCC(=O)NCCCCCCCCCCCCCCCC)CCN(CCO)CCO` ; retrieve measured Raw values for luciferase expression.
RESULT: 1323915 relative lights units

QUERY: Query `CCCCCCCCCCCCCCNC(=O)CCN(C)CCCN(C)CCC(=O)NCCCCCCCCCCCCCC` next
RESULT: 1138429 relative lights units

QUERY: Another compound to check: `CCCCCCCCCCCCCCNC(=O)CCN(C)CCN(C)CCC(=O)NCCCCCCCCCCCCCC`
RESULT: 3739668 relative lights units

QUERY: `CCCCCCCCCCCCNC(=O)CCN(C)CCN(CCC(=O)NCCCCCCCCCCCC)CCC(=O)NCCCCCCCCCCCC` , same question.
RESULT: 10279185 relative lights units

QUERY: Also, `CCCCCCCCCCCCCCCNC(=O)CCN(CCC(=O)NCCCCCCCCCCCCCCC)CCN(CCO)CCO` please.
RESULT: 1223360 relative lights units

QUERY: Further, for `CCCCCCCCCCCCCCCCNC(=O)CCN(C)CCCN(C)CCC(=O)NCCCCCCCCCCCCCCCC` ?
RESULT: 798342 relative lights units

QUERY: Queued: `CCCCCCCCCCCCCCNC(=O)CCN(C)CCCN(CCC(=O)NCCCCCCCCCCCCCC)CCC(=O)NCCCCCCCCCCCCCC`
RESULT: 167043 relative lights units

QUERY: Next: `CCCCCCCCCCCCCCCCNC(=O)CCN(CCCN(CCO)CCO)CCC(=O)NCCCCCCCCCCCCCCCC`
RESULT: 1192838 relative lights units

QUERY: Here is the next compound: `CCCCCCCCCCCCCCNC(=O)CCN(CCO)CCN(CCC(=O)NCCCCCCCCCCCCCC)CCC(=O)NCCCCCCCCCCCCCC`
RESULT: 108854 relative lights units

QUERY: Same question, `CCCCCCCCCCCCNC(=O)CCN(CCCCCCO)CCC(=O)NCCCCCCCCCCCC` this time
RESULT: 658985 relative lights units
